- SYSTEM NAME: hNav1.5 (Homo sapiens, UniProt Q14524)
- Sequence (Q14524 whole entry): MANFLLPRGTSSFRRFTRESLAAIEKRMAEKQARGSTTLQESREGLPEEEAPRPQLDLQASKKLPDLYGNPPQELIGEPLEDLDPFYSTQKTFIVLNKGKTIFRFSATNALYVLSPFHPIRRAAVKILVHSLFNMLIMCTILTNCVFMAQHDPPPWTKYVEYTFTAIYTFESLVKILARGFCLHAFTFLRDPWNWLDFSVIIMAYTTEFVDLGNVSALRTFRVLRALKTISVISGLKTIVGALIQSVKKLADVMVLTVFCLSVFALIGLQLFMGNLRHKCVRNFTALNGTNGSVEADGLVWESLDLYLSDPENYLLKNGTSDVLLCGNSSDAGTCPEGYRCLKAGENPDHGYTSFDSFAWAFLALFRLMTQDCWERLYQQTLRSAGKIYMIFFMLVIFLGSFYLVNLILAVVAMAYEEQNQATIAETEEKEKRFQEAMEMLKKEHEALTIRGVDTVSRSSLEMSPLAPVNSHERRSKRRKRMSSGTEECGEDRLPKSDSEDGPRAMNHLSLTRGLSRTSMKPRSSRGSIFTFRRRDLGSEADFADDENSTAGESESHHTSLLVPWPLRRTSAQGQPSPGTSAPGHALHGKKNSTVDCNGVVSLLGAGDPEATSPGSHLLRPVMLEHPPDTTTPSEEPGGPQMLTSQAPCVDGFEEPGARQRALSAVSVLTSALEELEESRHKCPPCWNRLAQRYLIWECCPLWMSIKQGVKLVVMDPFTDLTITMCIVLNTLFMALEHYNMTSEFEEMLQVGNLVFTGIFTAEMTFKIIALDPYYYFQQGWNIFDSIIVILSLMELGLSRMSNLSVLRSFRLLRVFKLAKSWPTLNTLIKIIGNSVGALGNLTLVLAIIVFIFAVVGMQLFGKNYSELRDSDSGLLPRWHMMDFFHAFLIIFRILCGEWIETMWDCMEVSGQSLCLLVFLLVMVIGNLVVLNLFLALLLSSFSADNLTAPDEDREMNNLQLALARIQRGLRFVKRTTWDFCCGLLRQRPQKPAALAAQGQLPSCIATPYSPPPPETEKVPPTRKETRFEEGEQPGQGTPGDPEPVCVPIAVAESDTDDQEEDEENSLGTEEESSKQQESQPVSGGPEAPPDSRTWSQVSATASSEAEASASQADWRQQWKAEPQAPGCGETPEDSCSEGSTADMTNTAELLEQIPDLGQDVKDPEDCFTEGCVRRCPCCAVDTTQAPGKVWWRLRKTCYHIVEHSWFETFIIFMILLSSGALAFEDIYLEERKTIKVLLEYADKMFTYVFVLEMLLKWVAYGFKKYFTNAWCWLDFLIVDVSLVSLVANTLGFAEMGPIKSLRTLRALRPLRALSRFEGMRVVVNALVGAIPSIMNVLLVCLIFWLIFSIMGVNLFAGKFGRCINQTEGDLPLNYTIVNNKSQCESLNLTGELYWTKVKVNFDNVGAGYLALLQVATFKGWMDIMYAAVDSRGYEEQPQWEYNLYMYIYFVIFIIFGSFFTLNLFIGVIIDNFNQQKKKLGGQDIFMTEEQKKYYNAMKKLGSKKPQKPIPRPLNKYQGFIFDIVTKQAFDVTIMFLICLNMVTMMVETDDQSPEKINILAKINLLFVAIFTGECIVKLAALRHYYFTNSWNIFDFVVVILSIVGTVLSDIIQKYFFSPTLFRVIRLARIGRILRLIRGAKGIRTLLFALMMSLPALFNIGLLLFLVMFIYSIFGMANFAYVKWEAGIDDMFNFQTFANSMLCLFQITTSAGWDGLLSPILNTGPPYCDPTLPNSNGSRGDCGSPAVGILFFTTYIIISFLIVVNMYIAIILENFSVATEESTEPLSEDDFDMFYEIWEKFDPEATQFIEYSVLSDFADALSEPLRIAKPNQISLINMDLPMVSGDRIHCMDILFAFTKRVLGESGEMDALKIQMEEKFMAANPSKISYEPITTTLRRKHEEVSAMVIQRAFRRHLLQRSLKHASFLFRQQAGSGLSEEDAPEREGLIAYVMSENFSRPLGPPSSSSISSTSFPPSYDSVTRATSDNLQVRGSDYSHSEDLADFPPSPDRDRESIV
- ASSAY PROTOCOL: Interaction with the inactivated state: steady-state parameters (20 s inactivation at −20 mV)
- CONDITION SET: after 20 s inactivation at −20 mV, short recovery at −140 mV; wild type; read-out: half-maximal inhibition (IC50), representing the affinity for the inactivated state (Ki)
- Experimental: Electrophysiological experiments were performed as previously described ([Ludolph et al., 2010]; [Föhr et al., 2021]). Briefly, tsA201 cells were used for experiments 24–48 h after transfection. Membrane currents were recorded in the whole-cell recording mode using an EPC-9 amplifier and Patchmaster software (v2x73; HEKA, Lambrecht, Germany ([Hamill et al., 1981])). […]
READOUT: IC50 (µM)
Please state the figure in µM; there is no need to write the unit.

// query For the compound O=C1C2=C(CCN(Cc3ccccc3)C2)N2CCN=C2N1Cc1ccc(C(F)(F)F)cc1 [ONC212] , report IC50.
// result 2.5

Just for reference, paper PMC8567104 is where these values come from.
